// each record: one item and its log10 IC50 for PKC-β1 (Homo sapiens)
Counter-ions that a name gives are not always drawn.
readout_name: log10 IC50 (log10 of the value in nM)

compound	readout_name	measurement
CC(=O)NC[C@H]1CCn2cc(c3ccccc32)C2=C(C(=O)NC2=O)c2cn(c3ccccc23)CCO1 [Example 19r]	log10 IC50	1.51
O=C1NC(=O)C2=C1c1cn(c3ccccc13)CCO[C@@H](CNCc1ccccc1)CCn1cc2c2ccccc21 [Example 18r]	log10 IC50	1.92
CN1CCN(C[C@@H]2CCn3cc(c4ccccc43)C3=C(C(=O)NC3=O)c3cn(c4ccccc34)CCO2)CC1 [Example 23s]	log10 IC50	2.48
O=C1NC(=O)C2=C1c1cn(c3ccccc13)CCC[C@@H](CO)CCn1cc2c2ccccc21 [Example 31r]	log10 IC50	1.28
O=C1NC(=O)C2=C1c1cn(c3ccccc13)CCO[C@H](CNS(=O)(=O)c1ccccc1)CCn1cc2c2ccccc21 [Example 21s]	log10 IC50	2.23
CC(=O)OCC1CCCn2cc(c3ccccc32)C2=C(C(=O)NC2=O)c2cn(c3ccccc23)CC1 (stereo not shown)	log10 IC50	2.30
NCC1CCn2cc(c3ccccc32)C2=C(C(=O)NC2=O)c2cn(c3ccccc23)CCO1 (stereo not shown) [Example 4, trifluoroacetate salt]	log10 IC50	1.30

---

These compounds were tested on PKC-α (Homo sapiens); IC50 is the recorded read-out.
Where a name gives a salt, the structure may show the parent alone.

compound	IC50, nM
CN(C)C[C@@H]1CCCn2cc(c3ccccc32)C2=C(C(=O)NC2=O)c2cn(c3ccccc23)CC1 [Example 40r, hydrochloride salt]	300
NC[C@H]1CCn2cc(c3ccccc32)C2=C(C(=O)NC2=O)c2cn(c3ccccc23)CCO1	300
CC(=O)NC[C@H]1CCn2cc(c3ccccc32)C2=C(C(=O)NC2=O)c2cn(c3ccccc23)CCO1 [Example 19r]	480
O=C1NC(=O)C2=C1c1cn(c3ccccc13)CCOCC(CO)CCn1cc2c2ccccc21 (stereo not shown)	4200

---

# system_under_test: PKC gamma (Homo sapiens)
Structures can show the parent of a compound that is named as a salt.

molecule	IC50 [nM]
CN(C)CC1CCn2cc(c3ccccc32)C2=C(C(=O)NC2=O)c2cn(c3ccccc23)CCO1 (stereo not shown) [Example 5, HCl Salt]	230

---

# system_under_test: calcium calmodulin dependent protein kinase
# protocol_description: Calcium Calmodulin Dependent Protein Kinase Assay (CAM)
# condition_label: Table 1
readout_name: IC50

molecule	system_under_test	readout_name	measurement
O=C1NC(=O)C2=C1c1cn(c3ccccc13)CCCOC(CO)CCn1cc2c2ccccc21 (stereo not drawn)	calcium calmodulin dependent protein kinase	IC50	> 100 µM
O=C1NC(=O)C2=C1c1cn(c3ccccc13)CCCC(COCc1ccccc1)CCn1cc2c2ccccc21 (racemic)	calcium calmodulin dependent protein kinase	IC50	> 10 µM
O=C1NC(=O)C2=C1c1cn(c3ccccc13)CCCCCCCn1cc2c2ccccc21	calcium calmodulin dependent protein kinase	IC50	> 100 µM

---

Structures can show the parent of a compound that is named as a salt.
A short record of log10 of IC50 observed with PKC-α (Homo sapiens, UniProt P17252) follows.
readout_name: log10 of IC50 (log10 of the value in µM)

molecule	log10 of IC50
CN1CCN(C[C@@H]2CCn3cc(c4ccccc43)C3=C(C(=O)NC3=O)c3cn(c4ccccc34)CCO2)CC1 [Example 23s]	0.26
CN(C)CC1CCn2cc(c3ccccc32)C2=C(C(=O)NC2=O)c2cn(c3ccccc23)CC1 [Example 54, hydrochloride]	-0.80
O=C1NC(=O)C2=C1c1cn(c3ccccc13)CCC[C@@H](CN1CCCC1)CCn1cc2c2ccccc21 [Example 36r, hydrochloride salt]	-0.35
O=C1NC(=O)C2=C1c1cn(c3ccccc13)CCO[C@H](CNCc1ccccc1)CCn1cc2c2ccccc21 [Example 18s]	0.81
O=C1NC(=O)C2=C1c1cn(c3ccccc13)CCOc1ccccc1Cn1cc2c2ccccc21 [Example 27, hydrochloride]	0.34
CN(C)CC1CCn2cc(c3ccccc32)C2=C(C(=O)NC2=O)c2cn(c3ccccc23)CCOC1 (stereo not drawn) [Example 8, hydrochloride salt]	0.40
O=C1CCCn2cc(c3ccccc32)C2=C(C(=O)NC2=O)c2cn(c3ccccc23)CCC1 [Example 49]	1.00

Ref: patent US5696108A
